target: EPHB3 (human); assay: radiometric filter-binding kinase assay; conditions: compound 0.01 µM
measuredMetric: residual activity (%)

[[record]]
compound = "CNc1nc(-c2ccc3c(N)n[nH]c3c2)cc(N2C[C@@H](C(=O)NC3CCCCC3)CC[C@H]2C)n1"
measuredmetric = "residual activity"
measuredresult = 106

[[record]]
compound = "COc1ccc(N(C(=O)Nc2c(C)cccc2C)c2cc(Nc3ccc(N4CCN(C)CC4)cc3)ncn2)c(OC)c1"
measuredmetric = "residual activity"
measuredresult = 108

[[record]]
compound = "O=C(Nc1nc2cc(C(F)(F)F)cc(NC3CC3)n2n1)c1cccnc1"
measuredmetric = "residual activity"
measuredresult = 99

[[record]]
compound = "COc1cc(O)c2c(c1)[C@H]1OC1C[C@H](O)[C@H](O)C(=O)/C=C\\C[C@H](C)OC2=O (stereo partly specified)"
measuredmetric = "residual activity"
measuredresult = 118

[[record]]
compound = "C/C(=C1/C(=O)Nc2ccc(NC(N)=O)cc21)c1ccc[nH]1"
measuredmetric = "residual activity"
measuredresult = 99

[[record]]
compound = "CNC(=O)C1[C@H]2O[C@@](C)([C@@H]1N)n1c3ccccc3c3c4c(c5c6ccccc6n2c5c31)C(=O)NC4 (stereo partly specified)"
measuredmetric = "residual activity"
measuredresult = 106

